Hi there, I'd appreciate the recorded IC50 for every entry that follows.
# tgt: Aurora B (Homo sapiens)
# Construct: HT-29 cells grown in complete growth media
# Sequence (Q96GD4 whole entry): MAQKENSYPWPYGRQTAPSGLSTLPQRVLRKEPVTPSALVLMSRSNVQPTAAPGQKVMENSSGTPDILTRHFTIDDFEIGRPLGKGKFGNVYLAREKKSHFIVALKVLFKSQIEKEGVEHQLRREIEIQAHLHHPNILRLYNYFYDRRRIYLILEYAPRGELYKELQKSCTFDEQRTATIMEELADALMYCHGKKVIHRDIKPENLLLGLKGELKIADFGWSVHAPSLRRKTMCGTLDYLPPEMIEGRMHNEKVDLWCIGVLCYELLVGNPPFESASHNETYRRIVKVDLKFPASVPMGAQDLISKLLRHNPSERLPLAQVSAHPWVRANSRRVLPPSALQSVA
# assay-name: Aurora B cell mechanistic assay (HT-29), phospho-Histone H3 (Ser10) ELISA
# measurement-parameters: HT-29 cell line; inhibition of phospho-Histone H3 (Ser10); at least duplicate experiments (italicized if single experiment); read-out: Aurora B mech IC50
# Experimental: The cellular activity of the compounds of the present invention against Aurora B may be determined by the following procedure. […] Signal was measured on a Wallac Victor plate reader at 450 nm. […] The percent inhibition of phospho-Histone H3 (Ser10) was expressed as % control. IC50 values were calculated from the percent control data using a standard four-parameter model. […]

Previously resolved entries follow.
- sample-smiles: "CCOc1ccc(F)c(Cl)c1[C@@H](C)c1c[nH]c2ncc(-c3c(C)nn(C[C@@H](O)CO)c3C)cc12"
  result: "> 1000 nM"
- sample-smiles: "Cc1c(-c2cnc3[nH]cc([C@H](C)c4c(OC(C)C)ccc(F)c4Cl)c3c2)cnn1[C@H]1CC[C@H](O)CC1"
  result: "200 to 1000 nM"
- sample-smiles: "Cc1c(-c2cnc3[nH]cc([C@H](C)c4c(OC(F)F)ccc(F)c4Cl)c3c2)cnn1[C@H]1CC[C@H](C(N)=O)CC1"
  result: "200 to 1000 nM"
- sample-smiles: "COc1ccc(F)c(Cl)c1[C@@H](C)c1c[nH]c2ncc(-c3cnn([C@H]4CC[C@H](C(=O)N(C)C)CC4)c3C)cc12"
  result: "> 1000 nM"

State the recorded IC50 for every item in the following list.
1. [2H]C([2H])([2H])c1c(-c2cnc3[nH]cc([C@H](C)c4c(OC(F)F)ccc(F)c4Cl)c3c2)cnn1[C@H]1CC[C@H](O)CC1
2. Cc1c(-c2cnc3[nH]cc([C@H](C)c4c(OC(F)F)ccc(F)c4Cl)c3c2)cnn1C[C@H](O)CO

Result:
1. 200 to 1000 nM
2. 200 to 1000 nM
